The following sequences are listed with their measured phosphorylation enrichment values.
System: c-Src;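 further: 11-residue human phosphosite peptides and single-mutation variants displayed on the E. coli surface, counted by deep sequencing, each peptide's frequency after selection divided by its frequency in the unselected input library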;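 further: frequency after pTyr selection over input frequency; kinase dosed for 20-30% of maximal phosphorylation in three min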
Assay details: phosphorylation enrichment, bacterial display (enrichment ratio); higher = better substrate or ligand; peptides without Tyr show the background

# Biopolymer sequence, phosphorylation enrichment
rows = [
    ("AHAGEHGAEAL [HBA1_Y25_Y25H]", 0.461),
    ("NHQYDYTFDWT [CSNK1A1_Y294]", 1.62),
    ("IRTDAYVWAMT [RPE65_Y89_R91W]", 0.372),
    ("RTCSSYAIEKI [PARP15_Y520]", 0.383),
    ("ISTAGYSFPEL [EDAR_Y406_I408F]", 0.487),
    ("AFPVSYSSSGA [RET_Y687]", 0.477),
    ("LAETSYVIVLE [MAGEA1_Y276_K278I]", 1),
    ("QQPGPYDRPGA [HNRNPH2_Y210_R206Q]", 0.577),
    ("EEGRVYVFHLS [ITGAE_Y549_R552H_YF]", 0.522),
    ("SLLLSYFLIKW [NUP160_Y773_P768S_YF]", 0.512),
    ("NPSFNYEIVNR [DYNC1H1_Y3379_YF]", 0.388),
    ("AEVDTYCRHNY [HLA-DRB1_Y107_A103E]", 0.537),
    ("DFEGLYQEGGG [TMEM159_Y159_E154D]", 0.923),
    ("LQIPMYEVQWK [KIT_Y553_K550I]", 1.55),
    ("NDHHFYLEGTL [ALDOB_Y223_V222F]", 0.392),
    ("SVMVPYEPPEV [TP53_Y220_V217M]", 0.465),
    ("KFLENYLNCLL [PLD2_Y169_R172C_YF]", 0.572),
    ("AESPEYVHMFT [FAM111A_Y511_YF]", 0.443),
    ("CNTIHYNFMCN [TP53_Y234_T230N_YF]", 0.498),
    ("IMITDYLPLFR [INSR_Y87_L89P]", 0.577),
    ("PSAEGYQDVRD [ABLIM1_Y439]", 0.492),
    ("AHPGEYGAEAL [HBA1_Y25_A22P]", 0.408),
    ("RCNHPYLINGA [CHD7_Y1256_C1251R]", 0.481),
    ("DTQNSYGCATS [TSC1_Y304]", 0.555),
    ("LEDEVCAQKMK [TPM2_Y261_Y261C]", 0.573),
    ("GTGTAYLCGVK [ALPL_Y117_A114G]", 0.348),
    ("SHSMRYFFTAV [HLA-C_Y31_D33F]", 0.568),
    ("AERKLYRNVML [ZNF569_Y33_Q29E]", 0.312),
    ("TPTYPYLLPKS [PLD2_Y580]", 0.581),
    ("PTTKTYFPHFD [HBA1_Y43]", 0.576),
    ("LGSWTYTKTVS [ROS1_Y144]", 0.774),
    ("KDHPDYKFQRR [SOX10_Y171_P175R_YF]", 0.446),
    ("VHSGTYQVTVR [MYBPC3_Y1043]", 0.561),
    ("WQQQSYLGSGI [CTNNB1_Y30_D32G]", 0.421),
    ("GTAPSYGNPSS [CD19_Y378]", 0.496),
    ("MQMEEYRGRVE [BTNL2_Y91_W94R]", 0.437),
    ("MEFAKYGSLRG [RET_Y809_V804M_YF]", 0.484),
    ("FLEKFYKFGSR [NNMT_Y25_YF]", 0.365),
    ("SGPRRYTIATL [TTR_Y125_A129T]", 0.375),
    ("MPQNEYIELHR [NSA2_Y6]", 0.66),
    ("FGRTFYNQAIM [MCCC2_Y196]", 0.463),
    ("SSRKEYFIGGG [GYPC_Y126]", 0.496),
    ("LKKLEYLNLPL [LRRC6_Y70_A74P]", 0.374),
    ("GRKTLYSFFSP [UNG_Y8_Q4R]", 1.9),
    ("SHKELYKWFTS [DYNC1H1_Y3051_E3048K]", 0.576),
    ("AHPIIYTIIEA [PYKtide_no-pT_2014]", 3.47),
    ("PHMQTYEVDPN [SDHB_Y61_L65P]", 1.35),
    ("ALTRSYVREKV [CYP2C8_Y243_I244V]", 0.316),
    ("NSNAAYEESHF [LRIF1_Y714_Q716E]", 0.475),
    ("NYYDLYGGEKF [PTPN11_Y66_D61N]", 4.47),
    ("KACKHYLTTRT [ZBTB5_Y118]", 0.659),
    ("GQLIFYAPPEW [CNTN6_Y315]", 0.822),
    ("ACRSLYGGFVE [MVD_Y164]", 7.11),
    ("AGLVQYFMEHH [PTPN11_Y80_E76G_YF]", 0.452),
    ("AKYLGYPPPEI [KDR_Y357]", 0.385),
    ("LQLLGYRPVFS [CHST6_Y358_YF]", 0.487),
    ("SVAVPYEPPEV [TP53_Y220_V217A]", 0.551),
    ("DPHECYAKVFD [ALB_Y394]", 0.665),
]
